B1: glmS ribozyme (parent)
chain: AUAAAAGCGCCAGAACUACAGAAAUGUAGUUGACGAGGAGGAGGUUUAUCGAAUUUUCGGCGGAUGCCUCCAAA

variants of: B1; assay: KM; higher = weaker cofactor use; RNA array; conditions: with glucosamine-6-phosphate
Outcome label depends on KM relative to 2000 µM: at/above gives MET, below gives NOT MET.

[ask] Answer whether KM of U30A C71A is greater than or equal to 2000 µM.
[reply] NOT MET

[ask] Would you say G32A G66C shows KM at minimum 2000 µM?
[reply] NOT MET

[ask] Please tell me: is the variant A15C C71U at or over 2000 µM in terms of KM?
[reply] NOT MET

[ask] Test whether the variant A52G C70U records KM of 2000 µM or higher.
[reply] MET

[ask] In plain terms: is recorded KM at least 2000 µM for U47C A64G ?
[reply] NOT MET

[ask] Item G29U G66A with KM of 2000 µM or above?
[reply] NOT MET

[ask] Determine whether this variant has KM no lower than 2000 µM: C16U U30A G40A
[reply] NOT MET

[ask] Dear colleague, could you confirm whether G41C U47A has KM at or above 2000 µM?
[reply] MET

[ask] Has G13C U56G a recorded KM greater than or equal to 2000 µM?
[reply] MET

[ask] Does KM meet or surpass 2000 µM for A14C C70A ?
[reply] NOT MET

[ask] Is KM for A14U U54C at or above 2000 µM?
[reply] NOT MET

[ask] Is the recorded value of KM equal to or greater than 2000 µM for this variant? C11U G37A
[reply] NOT MET

[ask] Tell me whether KM is at least 2000 µM here: A14C U55A
[reply] MET

[ask] Assess whether reported KM for U46G U69C sits at 2000 µM or higher.
[reply] NOT MET

[ask] Hi team, for A52U C67U , is the recorded KM at or above 2000 µM?
[reply] MET

[ask] API: above_or_equal(metric=KM, cutoff=2000 µM) for item A14G A52C
[reply] MET
